# TESTED ON: Recombinant human his-tagged IGF R extracellular domain protein (human) (UniProt P08069)
# PROCEDURE SUMMARY: SPR, Ab captured via anti-huIgG Fc, pH 7.4
ASSAY READOUT: kon (M⁻¹ s⁻¹)
The reply should be a number in M⁻¹ s⁻¹, with the unit left off.

Fill in kon for record VRDN-02031 (antibody, V domains shown) VH: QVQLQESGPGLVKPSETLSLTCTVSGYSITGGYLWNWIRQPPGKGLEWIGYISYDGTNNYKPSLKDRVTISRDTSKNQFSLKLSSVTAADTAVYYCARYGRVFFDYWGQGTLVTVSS VL: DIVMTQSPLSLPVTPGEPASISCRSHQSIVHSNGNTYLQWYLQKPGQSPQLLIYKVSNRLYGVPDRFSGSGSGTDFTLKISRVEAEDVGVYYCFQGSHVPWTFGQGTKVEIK
97300

Fill in kon for record VRDN-02004 (antibody, V domains shown) VH: QVQLQESGPGLVKPSETLSLTCTVSGYSHTGGYLWNWIRQPPGKGLEWIGYISYDGTNNYKPSLKDRVTISRDTSKNQFSLKLSSVTAADTAVYYCARYGRVFFDYWGQGTLVTVSS VL: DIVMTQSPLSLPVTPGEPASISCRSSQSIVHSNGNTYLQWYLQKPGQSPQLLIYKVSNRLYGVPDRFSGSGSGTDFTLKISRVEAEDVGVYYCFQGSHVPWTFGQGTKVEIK
87800

Fill in kon for record VRDN-02073 (antibody, V domains shown) VH: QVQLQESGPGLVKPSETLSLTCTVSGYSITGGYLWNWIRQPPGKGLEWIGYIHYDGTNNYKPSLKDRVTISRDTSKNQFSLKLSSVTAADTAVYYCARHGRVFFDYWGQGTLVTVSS VL: DIVMTQSPLSLPVTPGEPASISCRSHQSIVHSNGNTYLQWYLQKPGQSPQLLIYKVSNRLYGVPDRFSGSGSGTDFTLKISRVEAEDVGVYYCFQGSHVPHTFGQGTKVEIK
120000

The reported measurements were obtained from patent US20240360227A1.
